Exercise: state measured IC50 for each of the compounds provided.
# System: MDA-MB-231
# protocol-description: Antiproliferative activity against human MDA-MB-231 cells after 4 days
# Format: functional, cell-based
# cond: MDA-MB-231, 96 h
Give bare numbers, in nM.

substance-smiles	quantity-name	meas-value
COc1ccc(-c2[nH]c3cc(OC)ccc3c2C=O)cc1	IC50	35
COc1ccc(-c2[nH]c3ccc(C(C)(C)C)cc3c2C=O)cc1	IC50	280
CCCc1ccc2[nH]c(-c3ccc(OC)cc3)c(C=O)c2c1	IC50	20
CCCCCc1ccc2[nH]c(-c3ccc(C(F)(F)F)cc3)c(C=O)c2c1	IC50	42
CCCCc1ccc2[nH]c(-c3ccc(F)cc3)c(C=O)c2c1	IC50	350
COc1ccc2c(C=O)c(-c3ccc(C)cc3)[nH]c2c1	IC50	31
CCCCc1ccc2[nH]c(-c3ccc(C(F)(F)F)cc3)c(/C=N\O)c2c1	IC50	497

Lab note: next compound to report on.
Look up and state reported IC50 for "COc1ccc(-c2[nH]c3ccc(C(C)C)cc3c2C=O)cc1" 29
